# Measured On: M-phase phosphoprotein 8 (Homo sapiens) (UniProt Q99549)
# Sequence (Q99549 whole entry, looked up): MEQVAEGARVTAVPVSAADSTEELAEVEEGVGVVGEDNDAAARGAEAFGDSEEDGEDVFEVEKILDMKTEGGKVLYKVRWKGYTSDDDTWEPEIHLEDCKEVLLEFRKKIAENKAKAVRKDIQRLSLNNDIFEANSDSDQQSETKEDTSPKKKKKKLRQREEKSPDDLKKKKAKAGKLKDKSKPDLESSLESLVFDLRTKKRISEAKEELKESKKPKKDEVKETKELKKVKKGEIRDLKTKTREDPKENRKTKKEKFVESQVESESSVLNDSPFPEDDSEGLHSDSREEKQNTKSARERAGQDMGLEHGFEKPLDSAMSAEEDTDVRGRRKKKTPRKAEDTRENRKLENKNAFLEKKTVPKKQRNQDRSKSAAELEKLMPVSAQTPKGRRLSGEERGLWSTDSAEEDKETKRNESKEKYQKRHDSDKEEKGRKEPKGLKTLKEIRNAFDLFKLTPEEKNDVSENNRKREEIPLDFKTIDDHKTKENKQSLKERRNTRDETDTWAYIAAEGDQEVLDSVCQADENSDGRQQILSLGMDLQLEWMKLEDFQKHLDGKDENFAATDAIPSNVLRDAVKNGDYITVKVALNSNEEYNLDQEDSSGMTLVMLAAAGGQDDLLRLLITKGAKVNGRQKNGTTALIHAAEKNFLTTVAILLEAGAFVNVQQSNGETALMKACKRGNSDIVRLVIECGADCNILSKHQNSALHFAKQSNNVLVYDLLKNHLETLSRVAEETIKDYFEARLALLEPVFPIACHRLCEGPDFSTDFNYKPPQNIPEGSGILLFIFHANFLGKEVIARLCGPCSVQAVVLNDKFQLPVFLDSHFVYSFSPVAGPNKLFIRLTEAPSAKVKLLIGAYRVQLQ
# Assay Protocol: qHTS Validation Assay for Inhibitors for MPP8 Chromodomain Interactions with Methylated Histone Tails (AID 488949); note: nearly all actives have a fitted effect of over 55% in size
# Conditions: AlphaScreen MPP8 binding to H3K9me3 peptide; series mostly up to 57.1 µM
# Source text: As our understanding of epigenetics expands, it is becoming clear that players in this field are potential targets for drug development. […] Low-affinity protein-protein interactions (Kd in the single- to double-digit micromolar range) such as those discussed here have been very difficult to assay by traditional techniques such as fluorescence polarization or fluorescence resonance energy transfer. […]
Records with an inconclusive call do not appear. Calls of active or inactive are those of the source. Calls come from the whole dose curve; as a rule, active = well fitted inhibition curve with a large enough effect; inconclusive = small, poorly fitted or top-dose-only effect; inactive = no such curve, though single readings can be large or run the other way.
Log the outcome using a class from y (active), n (inactive)

# Compound, Measured On, Group Label
rows = [
    ("CC[C@@H]1C(=O)OC[C@@H]1Cc1cncn1C", "M-phase phosphoprotein 8 (Homo sapiens) (UniProt Q99549)", "n"),
    ("CC(C)NC(C)Cc1ccc(I)cc1 (stereo unspecified)", "M-phase phosphoprotein 8 (Homo sapiens) (UniProt Q99549)", "n"),
    ("Cc1c(C(=O)c2cccc3ccccc23)c2cccc3c2n1[C@H](CN1CCOCC1)CO3", "M-phase phosphoprotein 8 (Homo sapiens) (UniProt Q99549)", "n"),
    ("COc1ccc2c(c[n+](C)c3c4cc5c(cc4ccc23)OCO5)c1OC", "M-phase phosphoprotein 8 (Homo sapiens) (UniProt Q99549)", "n"),
    ("c1ccc(CCCN2CCN(CCOC(c3ccccc3)c3ccccc3)CC2)cc1", "M-phase phosphoprotein 8 (Homo sapiens) (UniProt Q99549)", "y"),
    ("C/C=C(/C)C(=O)O[C@H]1C(C)=C2[C@H]([C@@H]1OC(=O)CCCCCCC)[C@@](C)(OC(C)=O)C[C@H](OC(=O)CCC)[C@@]1(O)[C@H]2OC(=O)[C@@]1(C)O", "M-phase phosphoprotein 8 (Homo sapiens) (UniProt Q99549)", "n"),
]

Q: In this assay, the call recorded for CS(=N)(=O)CC[C@H](N)C(=O)O (stereo partly specified) was what?
Ans: n

Q: In this assay, the call recorded for "CC(=O)NCCc1c[nH]c2ccccc12" was what?
Ans: n

Each recorded value in this set is attributed to PubChem BioAssay (NCATS).
